# melting point per record follows

For record COCCCN1C(=O)c2ccc(C(=O)O)cc2C1=O the listed melting point is 147 to 149 °C

For record CN(C)C(=O)COc1cccc(C(=O)O)c1 the listed melting point is 193 to 195 °C

For record CC(=O)NC1(C(=O)O)CCC(C)CC1 (centres undefined) the listed melting point is 211 to 213 °C

For record O=Cc1nc(-c2ccccc2)cs1 the listed melting point is 61 to 63 °C

For record O=C(O)[C@@H]1CCCN1C(=O)Nc1ccc2c(c1)OCCO2 the listed melting point is 176 to 178 °C

New cases:
For record OCc1c(Cl)ccc2cccnc12 the listed melting point is 93 to 95 °C

For record Cc1ccccc1C(=O)C=O the listed melting point is 63 to 65 °C

For record CCOc1ccc(NC(=S)NN)cc1 the listed melting point is 178 to 182 °C

For record O=C(O)C1(O)CCN(Cc2ccccc2)C1 (centres undefined) the listed melting point is 173 to 175 °C

For record OC(Cc1ccc(Cl)cc1)C(F)(F)F (centres undefined) the listed melting point is 66 to 68 °C

For record O=C(O)c1ccnc(N2CCCC2)n1 the listed melting point is 205 to 207 °C

---

# melting point per record follows

Field: example entries. Status: answers known.
For record NCc1cc(=O)n2ccccc2n1 the listed melting point is 123 to 125 °C

For record CC(C)(C)c1ccc(C(=O)Nc2ccccc2N)cc1 the listed melting point is 175 to 177 °C

For record O=C(CCl)Nc1cccc(S(=O)(=O)N=C2CCCN2)c1 the listed melting point is 156 to 160 °C

For record CC(C)c1cc(Br)ccc1O the listed melting point is 48 to 50 °C

For record CS(=O)(=O)c1nc2ccccc2s1 the listed melting point is 86 to 89 °C

For record O=C(O)c1nn(-c2ccccc2)c2c1CCC2 the listed melting point is 179 to 181 °C

Consider the additional compound presented here.
For record O=C(O)c1ccc(Cl)[nH]c1=O the listed melting point is 224 to 226 °C

---

# melting point per record follows

Field: example entries. Status: answers known.
For record CN1C(=O)CC(C(=O)O)C1c1cccc(Cl)c1 (stereo not drawn) the listed melting point is 155 to 157 °C

For record CCOc1cccc(C=O)c1OC(F)F the listed melting point is 41 to 43 °C

For record NCCc1cccc(OCCCc2ccccc2)c1 the listed melting point is 44 to 46 °C

For record CNC(=O)NN the listed melting point is 103 to 105 °C

For record Cc1nc(COc2ccccc2/C=C/C(=O)O)cs1 the listed melting point is 143 to 145 °C

New cases:
For record N#CCC(=O)CCc1ccccc1 the listed melting point is 69 to 71 °C

For record O=C1c2ccccc2C(=O)N1CCCS(=O)(=O)Cl the listed melting point is 59 to 61 °C

For record Cn1c(Cl)nc(Cl)c1C=O the listed melting point is 61 to 63 °C

---

# melting point per record follows

For record O=[N+]([O-])c1ccc(OCc2ccccc2)cc1 the listed melting point is 92 to 94 °C

For record Nc1ccc(-c2csnn2)cc1 the listed melting point is 125 to 127 °C

For record Cc1c(C(=O)O)cnn1CCOC1CCCCO1 (stereo not given) the listed melting point is 139 to 141 °C

For record COCc1ccc(C(=O)O)o1 the listed melting point is 63 to 65 °C

For record O=C1OCCc2cnc3ncnn3c21 the listed melting point is 271 to 273 °C

New cases:
For record CCN1CCN(c2ccccc2N)CC1 the listed melting point is 39 to 43 °C

For record CC1CCN(CC(C)C(=O)NN)CC1 (stereo not given) the listed melting point is 113 to 115 °C

Reference source for all entries: a melting point compilation (Tetko et al.)
